test system: HEK-293T; assay: Multiplex assay against HEK293T; assay type: toxicity, cell-based; settings: human, 48 h, 1 µM, compound concentration 1 uM, replicate 2
experimental readout: Population Membrane Permeable-Phenotype (%)
# number only, unit % dropped from output

- CCCCC(=O)N(Cc1ccc(-c2ccccc2-c2nnn[nH]2)cc1)[C@H](C(=O)O)C(C)C: 0
- CCCCC1=NC2(CCCC2)C(=O)N1Cc1ccc(-c2ccccc2-c2nnn[nH]2)cc1: 1
- CCCOc1ccc2[nH]cc(C3=CCNCC3)c2n1.Cl: 1
- CC[C@@H](C)Nc1nc(C)nc2c(-c3ccc(OC)nc3C)c(C)nn12: 1
- O=C(NCCN1CCC(n2c(=O)[nH]c3cc(Cl)ccc32)CC1)c1ccc(F)cc1 [HALOPEMIDE]: 0
- CN(C)C(=O)Cn1cc(-c2ccc(-c3cncc4ccccc34)cc2)cn1: 0

Now let's try a different one.
Request: Fill in Population Membrane Permeable-Phenotype (%) for record CC(C)COc1ccc(CNC(=O)N(Cc2ccc(F)cc2)C2CCN(C)CC2)cc1
Result: 0

###

Recorded Population Membrane Permeable-Phenotype (%) for the following molecules
tested on: Fibroblast; test: Multiplex assay against human fibroblast; format: toxicity, cell-based; details: 24 h, 10 µM, compound concentration 10 uM, replicate 1
Please append the unit to your numeric answer.

# example entries with known answers
* O=C(NCCN1CCC(n2c(=O)[nH]c3cc(Cl)ccc32)CC1)c1ccc(F)cc1 [HALOPEMIDE] | 0%
* CC(C)c1noc(N2CCC(COc3ccc(-c4ccc(S(C)(=O)=O)cc4)nc3)CC2)n1 [GSK-1292263] | 1%
* COc1ccccc1N1CCN(C[C@@H](C(=O)NC(C)(C)C)c2ccccc2)CC1.Cl.Cl | 0%
* Cc1cnc(-c2cc(N3CCN(C(=O)CCS(C)(=O)=O)CC3)ncc2Cl)c(C)c1 | 2%
* Cl.N=C(N)NC(=O)Cc1c(Cl)cccc1Cl [GUANFACINE HYDROCHLORIDE] | 0%
* N#Cc1cc(F)cc(-c2nc(-c3ccc(F)cn3)no2)c1 | 0%

Request: Fill in Population Membrane Permeable-Phenotype (%) for record CCc1cc2cc(NS(=O)(=O)c3ccc(C#N)cc3)ccc2n(CC)c1=O
Result: 1%

###

test system: Fibroblast; assay: Multiplex assay against human fibroblast; assay type: toxicity, cell-based; details: 12 h, 1 µM, compound concentration 1 uM, replicate 2
experimental readout: Population Apoptotic (%)
# number only, unit % dropped from output

* COc1ccccc1N1CCN(C[C@@H](C(=O)NC(C)(C)C)c2ccccc2)CC1.Cl.Cl | 40
* CCCCC1=NC2(CCCC2)C(=O)N1Cc1ccc(-c2ccccc2-c2nnn[nH]2)cc1 | 38

Now let's try a different one.
Request: Fill in Population Apoptotic (%) for record CC(C)(C)c1cc(NC(=O)Nc2ccc(-c3cn4c(n3)sc3cc(OCCN5CCOCC5)ccc34)cc2)no1
Result: 41

###

Recorded Population Mitochondria Different-Phenotype (%) for the following compounds
tested on: Fibroblast; test: Multiplex assay against human fibroblast; assay type: toxicity, cell-based; conditions: 48 h, 10 µM, compound concentration 10 uM, replicate 1
# number only, unit % dropped from output

# example entries with known answers
- Cc1cccc(NC(=O)CN2CCC(c3ccccn3)CC2)c1.Cl.Cl: 5
- CN1CCN(c2cc(-c3ccccc3)nc(N)n2)CC1: 0
- CC(C)(C)c1cc(NC(=O)Nc2ccc(-c3cn4c(n3)sc3cc(OCCN5CCOCC5)ccc34)cc2)no1 [QUIZARTINIB]: 25
- Cl.N=C(N)NC(=O)Cc1c(Cl)cccc1Cl [GUANFACINE HYDROCHLORIDE]: 6

Now let's try a different one.
Request: Fill in Population Mitochondria Different-Phenotype (%) for record COc1ccccc1N1CCN(C[C@@H](C(=O)NC(C)(C)C)c2ccccc2)CC1.Cl.Cl
Result: 34

###

Recorded Population Tubulin-Different-Phenotype (%) for the following compounds
test system: U2OS; assay: Multiplex assay against U2OS; type: toxicity, cell-based; conditions: human, 48 h, 1 µM, compound concentration 1 uM, replicate 1
# number only, unit % dropped from output

• CN1CCN(c2cc(-c3ccccc3)nc(N)n2)CC1 = 2
• Cl.N=C(N)NC(=O)Cc1c(Cl)cccc1Cl [GUANFACINE HYDROCHLORIDE] = 3

Now let's try a different one.
Request: Fill in Population Tubulin-Different-Phenotype (%) for record NCCc1cn(S(=O)(=O)c2c(Cl)nc3sccn23)c2ccccc12.O=C(O)C(=O)O
Result: 2

###

test system: U2OS; test: Multiplex assay against U2OS; type: toxicity, cell-based; conditions: human, 12 h, 1 µM, compound concentration 1 uM, replicate 1
Rule: Population Mitotic Cells (%) under 20% gives not fulfilled, otherwise fulfilled.

Field: example entries. Status: answers known.
* CN(C)C(=O)Cn1cc(-c2ccc(-c3cncc4ccccc34)cc2)cn1 | fulfilled
* COc1cccc2c1c(NS(=O)(=O)c1ccc(Cl)s1)nn2Cc1cccc(CNC(=O)C(C)(C)O)c1 | not fulfilled
* COc1ccccc1N1CCN(C[C@@H](C(=O)NC(C)(C)C)c2ccccc2)CC1.Cl.Cl | fulfilled
* Cl.NCCc1ccc(O)c(O)c1 [DOPAMINE HYDROCHLORIDE] | not fulfilled
* NCCc1cn(S(=O)(=O)c2c(Cl)nc3sccn23)c2ccccc12.O=C(O)C(=O)O | fulfilled
* Cc1onc(-c2ccccc2Cl)c1C(=O)N(C)c1ccc(Cl)cc1 | not fulfilled
* CCCCC1=NC2(CCCC2)C(=O)N1Cc1ccc(-c2ccccc2-c2nnn[nH]2)cc1 | not fulfilled
* Cc1sc2c(c1C)C(c1ccc(Cl)cc1)=N[C@@H](CC(=O)NCCCCCCCCNC(=O)COc1cccc3c1C(=O)N(C1CCC(=O)NC1=O)C3=O)c1nnc(C)n1-2 (stereo partly drawn) | not fulfilled
* CC(=O)Nc1cccc2c1c(Sc1ccc(Cl)cc1)c(C)n2CC(=O)O | fulfilled
* O=C1[C@H](Cc2ccc(O)cc2)N2C(=O)CCN(C(=O)NCc3ccccc3)[C@H]2CN1Cc1cccc2ccccc12 | not fulfilled

Request: Given O=C(NCCN1CCC(n2c(=O)[nH]c3cc(Cl)ccc32)CC1)c1ccc(F)cc1 [HALOPEMIDE] , state whether its Population Mitotic Cells (%) is at least 20%.
Result: not fulfilled

Request: Given CC[C@@H](C)Nc1nc(C)nc2c(-c3ccc(OC)nc3C)c(C)nn12 , state whether its Population Mitotic Cells (%) is at least 20%.
Result: fulfilled

Request: Given CC(C)COc1ccc(CNC(=O)N(Cc2ccc(F)cc2)C2CCN(C)CC2)cc1 , state whether its Population Mitotic Cells (%) is at least 20%.
Result: not fulfilled

Request: Given CCCCC(=O)N(Cc1ccc(-c2ccccc2-c2nnn[nH]2)cc1)[C@H](C(=O)O)C(C)C , state whether its Population Mitotic Cells (%) is at least 20%.
Result: not fulfilled

Request: Given Cl.N=C(N)NC(=O)Cc1c(Cl)cccc1Cl [GUANFACINE HYDROCHLORIDE] , state whether its Population Mitotic Cells (%) is at least 20%.
Result: not fulfilled

Request: Given Br.CS(=O)(=O)Nc1c(O)ccc2c1CCCC2C1=NCCN1 (stereo not drawn) , state whether its Population Mitotic Cells (%) is at least 20%.
Result: fulfilled

Request: Given CC(C)c1noc(N2CCC(COc3ccc(-c4ccc(S(C)(=O)=O)cc4)nc3)CC2)n1 , state whether its Population Mitotic Cells (%) is at least 20%.
Result: fulfilled

###

test system: HEK-293T; experiment: Multiplex assay against HEK293T; assay type: toxicity, cell-based; conditions: human, 12 h, 10 µM, compound concentration 10 uM, replicate 1
Recorded Population Apoptotic (%) for the following compounds
# number only, unit % dropped from output

# example entries with known answers
• O=C(NCCN1CCC(n2c(=O)[nH]c3cc(Cl)ccc32)CC1)c1ccc(F)cc1 [HALOPEMIDE] = 39
• Cc1cnc(-c2cc(N3CCN(C(=O)CCS(C)(=O)=O)CC3)ncc2Cl)c(C)c1 = 42
• CCc1cc2cc(NS(=O)(=O)c3ccc(C#N)cc3)ccc2n(CC)c1=O = 38
• C[C@H](N)COC(=O)[C@@H](CCCCN)NC(=O)Cc1c(-c2ccc3ccccc3c2)[nH]c2c1ccc1ccccc12 = 41
• CCCCC1=NC2(CCCC2)C(=O)N1Cc1ccc(-c2ccccc2-c2nnn[nH]2)cc1 = 50

Request: Fill in Population Apoptotic (%) for record O=C(CCCc1ccccc1)Nc1nc2ccccc2c(=O)s1
Result: 30

Request: Fill in Population Apoptotic (%) for record Cc1noc(-c2ccc(-c3ccc(CC(=O)O)cc3)cc2)c1NC(=O)O[C@H](C)c1ccccc1Cl
Result: 51

Request: Fill in Population Apoptotic (%) for record Cl.NCCc1ccc(O)c(O)c1 [DOPAMINE HYDROCHLORIDE]
Result: 46

Request: Fill in Population Apoptotic (%) for record Br.CS(=O)(=O)Nc1c(O)ccc2c1CCCC2C1=NCCN1 (centres undefined)
Result: 48
